test: The amount of unchanged compound in urine collected at 0-36 hr after treatment; conditions: rat
Recorded metric: dose excreted (%)

[I] Cn1c([N+](=O)[O-])cnc1C1CC1
[II] Cn1c([N+](=O)[O-])cnc1CO
[III] Cc1ncc([N+](=O)[O-])n1CCS(C)(=O)=O
Hello, I need these entries ordered by dose excreted, highest reading first. Thanks! Reply format: the labels, ordered as requested. II, III, I

[a] CC(C)c1ncc([N+](=O)[O-])n1C [IPRONIDAZOLE]
[b] O=[N+]([O-])c1cncn1CCN1CCOCC1 [NIMORAZOLE]
[c] Cn1c([N+](=O)[O-])cnc1/C=C(\Oc1ccccc1)C(=O)O
[d] O=[N+]([O-])c1cnc(/C=C/c2ccc3c(c2)OCO3)n1CCO
Could you please order the items by dose excreted, going from the lowest number to the highest? Reply format: the labels, ordered as requested. d, a, c, b

====

tested on: Rattus norvegicus; assay: The total 54 h urinary excretion of unchanged compound reported as log (percent X 10) of the administered dose; conditions: in vivo
Recorded metric: Log BR

Given Cc1ncc([N+](=O)[O-])n1CC(O)CCl (stereo not given) , state its recorded Log BR. 2.567

Given `Cc1ncc([N+](=O)[O-])n1CC(=O)Nc1ncccn1` , state its recorded Log BR. 2.701

Given `Cc1ncc([N+](=O)[O-])n1CC(=O)N1CCN(C(=O)Cn2c([N+](=O)[O-])cnc2C)CC1` , state its recorded Log BR. 2.27

Given `COC(=S)NCCn1c([N+](=O)[O-])cnc1C` , state its recorded Log BR. 2.364

Given `Cc1ncc([N+](=O)[O-])n1CCS(C)(=O)=O` , state its recorded Log BR. 2.448

====

conditions: octanol/water
Recorded metric: Log k'

Given Cn1c([N+](=O)[O-])cnc1/C=C/c1ccnc(N)n1 [AZANIDAZOLE] , state its recorded Log k'. 0.423

[P] COC(=S)NCCn1c([N+](=O)[O-])cnc1C [CARNIDAZOLE]
[Q] Cc1ncc([N+](=O)[O-])n1CC(=O)Nc1ncccn1
[R] Cn1c([N+](=O)[O-])cnc1C=O
Could you please order the items by Log k', going from the lowest number to the highest? Reply format: the labels, ordered as requested. Q, R, P
(Q: -0.115, R: -0.067, P: 0.465)

[1] O=[N+]([O-])c1cnc(/C=C/c2ccc3c(c2)OCO3)n1CCO
[2] CC(C)c1ncc([N+](=O)[O-])n1C [IPRONIDAZOLE]
[3] Cc1ncc([N+](=O)[O-])n1CCS(C)(=O)=O
Please list the entries, largest Log k' first. Reply format: the labels, ordered as requested. 1, 2, 3

[I] O=C1NCCN1c1ncc([N+](=O)[O-])s1 [NIRIDAZOLE]
[II] Cn1c([N+](=O)[O-])cnc1/C=C(\Oc1ccccc1)C(=O)O
Could you tell me which of these two has the smaller Log k' figure? First: I Second: II Field: selected label. Fill in the label of the entry you choose. II

====

assay: The amount of unchanged compound detected in urine collected at 0-18 hr after treatment; conditions: rat
Recorded metric: dose excreted (%)

Here is how some compounds turned out for dose excreted.
Given `O=C1NCCN1c1ncc([N+](=O)[O-])s1` , state its recorded dose excreted. 4.6

Given `O=[N+]([O-])c1c[nH]cn1` , state its recorded dose excreted. 33.8

Given `Cn1c([N+](=O)[O-])cnc1C1CC1` , state its recorded dose excreted. 4.1

Given Cc1ncc([N+](=O)[O-])n1CC(O)CO (stereo unspecified) , state its recorded dose excreted. 14.3

Given CCC(CC)C(O)Cn1c([N+](=O)[O-])cnc1C (stereo unspecified) , state its recorded dose excreted. 36.4

[P] Cn1c([N+](=O)[O-])cnc1/C=C/c1ccnc(N)n1
[Q] O=[N+]([O-])c1cncn1CCN1CCOCC1
So which one has the bigger dose excreted here, P or Q ? Field: selected label. Fill in the label of the entry you choose. Q

====

experiment: Partition coefficient (logP); conditions: octanol/water
Recorded metric: logP

Here is how some molecules turned out for logP.
Given `Cn1c([N+](=O)[O-])cnc1C1CC1` , state its recorded logP. 1

Given `CCS(=O)(=O)CCn1c([N+](=O)[O-])cnc1C` , state its recorded logP. -0.36

Given `CCN(CC)CCOCCn1c([N+](=O)[O-])cnc1C` , state its recorded logP. -0.38

[P] Cc1ncc([N+](=O)[O-])n1CCS(C)(=O)=O
[Q] Cc1ncc([N+](=O)[O-])n1CC(O)Cn1c([N+](=O)[O-])cnc1C
[R] COC(=S)NCCn1c([N+](=O)[O-])cnc1C
Could you please order the items by logP, going from the lowest number to the highest? Reply format: the labels, ordered as requested. P, Q, R
(P: -0.35, Q: 0.31, R: 0.9)

====

system: Rattus norvegicus; assay: The total 72 hr urinary excretion of unchanged compound reported as log (percent X 10) of the administered dose; details: in vivo
Recorded metric: Log BR

Here is how some compounds turned out for Log BR.
Please provide the recorded Log BR for Cc1ncc([N+](=O)[O-])n1CC(O)CCl (configuration not stated) , tested on Rattus norvegicus. 2.625

Please provide the recorded Log BR for `Cn1c([N+](=O)[O-])cnc1/C=C/c1ccnc(N)n1` , tested on Rattus norvegicus. 2.202

Please provide the recorded Log BR for `Cn1c([N+](=O)[O-])cnc1C=O` , tested on Rattus norvegicus. 2.477

Please provide the recorded Log BR for `CN1CCN(Cc2ncc([N+](=O)[O-])n2C)CC1` , tested on Rattus norvegicus. 2.658

Please provide the recorded Log BR for `Cn1c([N+](=O)[O-])cnc1CO` , tested on Rattus norvegicus. 2.81

Please provide the recorded Log BR for `COC(=S)NCCn1c([N+](=O)[O-])cnc1C` , tested on Rattus norvegicus. 2.364

Please provide the recorded Log BR for `Cn1c([N+](=O)[O-])cnc1/C=C(\Oc1ccccc1)C(=O)O` , tested on Rattus norvegicus. 2.337

Please provide the recorded Log BR for `Cn1c([N+](=O)[O-])cnc1C1CC1` , tested on Rattus norvegicus. 2.113

Please provide the recorded Log BR for `Cc1ncc([N+](=O)[O-])n1CC(=O)Nc1ncccn1` , tested on Rattus norvegicus. 2.701

Please provide the recorded Log BR for `O=[N+]([O-])c1c[nH]cn1` , tested on Rattus norvegicus. 2.664

[1] Cc1ncc([N+](=O)[O-])n1CC(O)CO (configuration not stated)
[2] O=C1NCCN1c1ncc([N+](=O)[O-])s1
Could you tell me which of these two has the smaller Log BR figure? First: 1 Second: 2 Field: selected label. Fill in the label of the entry you choose. 2
(2: 1.861, 1: 2.822)

====

system: Rattus norvegicus; assay: The total 54 h urinary excretion of unchanged compound reported as log (percent X 10) of the administered dose; details: in vivo
Recorded metric: Log BR

Here is how some compounds turned out for Log BR.
Given `CCN(CC)CCOCCn1c([N+](=O)[O-])cnc1C` , state its recorded Log BR. 2.455

Given CCC(CC)C(O)Cn1c([N+](=O)[O-])cnc1C (stereo unspecified) , state its recorded Log BR. 2.713

Given `CN1CCN(Cc2ncc([N+](=O)[O-])n2C)CC1` , state its recorded Log BR. 2.658

Given `Cn1c([N+](=O)[O-])cnc1/C=C/c1ccnc(N)n1` , state its recorded Log BR. 2.202

Given `O=[N+]([O-])c1c[nH]cn1` , state its recorded Log BR. 2.664

Given `Cc1ncc([N+](=O)[O-])n1CCO` , state its recorded Log BR. 2.692

[A] O=[N+]([O-])c1cnc(/C=C/c2ccc3c(c2)OCO3)n1CCO
[B] Nc1ncc(S(=O)(=O)c2ccc([N+](=O)[O-])cc2)s1
So which one has the bigger Log BR here, A or B ? Field: selected label. Fill in the label of the entry you choose. B

====

test: The amount of unchanged compound detected in urine collected at 0-18 hr after treatment; details: rat
Recorded metric: dose excreted (%)

Here is how some molecules turned out for dose excreted.
Given Cc1ncc([N+](=O)[O-])n1CC(O)CCl (stereo unspecified) [ORNIDAZOLE] , state its recorded dose excreted. 13.2

Given `Cn1c([N+](=O)[O-])cnc1C=O` , state its recorded dose excreted. 10.6

Given COC(=S)NCCn1c([N+](=O)[O-])cnc1C [CARNIDAZOLE] , state its recorded dose excreted. 6.7

Given `Cn1c([N+](=O)[O-])cnc1CO` , state its recorded dose excreted. 32.6

Given `Cc1ncc([N+](=O)[O-])n1CC(=O)Nc1ncccn1` , state its recorded dose excreted. 37.1

Given CC(C)c1ncc([N+](=O)[O-])n1C [IPRONIDAZOLE] , state its recorded dose excreted. 4.3

Given `Cc1ncc([N+](=O)[O-])n1CC(=O)N1CCN(C(=O)Cn2c([N+](=O)[O-])cnc2C)CC1` , state its recorded dose excreted. 14.3

Given `Nc1ncc(S(=O)(=O)c2ccc([N+](=O)[O-])cc2)s1` , state its recorded dose excreted. 48.6

Given Cc1ncc([N+](=O)[O-])n1CCO [METRONIDAZOLE] , state its recorded dose excreted. 30.5

[1] CCN(CC)CCOCCn1c([N+](=O)[O-])cnc1C
[2] Cn1c([N+](=O)[O-])cnc1/C=C(\Oc1ccccc1)C(=O)O
So which one has the bigger dose excreted here, 1 or 2 ? Field: selected label. Fill in the label of the entry you choose. 1
(1: 23.4%, 2: 2.5%)
